experiment: Urinary excretion of phenolic metabolites after intake of the GCPE nutraceutical; details: week 0, interval 0–3 h
REPORTED_METRIC: Amount excreted in urine, 0- 3 h (µmol)

| COMPOUND | QUANTITATIVE_READOUT |
| --- | --- |
| COc1cc(C=CC(=O)O)ccc1OC1OC(C(=O)O)C(O)C(O)C1O (centres unmarked) [FA-4′-glucuronide, 3′-Methoxycinnamic acid-4′-glucuronide] | 0.5 |
| O=C(O)Cc1cccc(O)c1 [3′-Hydroxyphenylacetic acid] | 1.6 |
| COc1ccc(/C=C/C(=O)O)cc1O [iFA, 3′-Hydroxy-4′-methoxycinnamic acid] | 1 |

P: O=C(CCc1ccc(O)c(O)c1)OC1CC(O)(C(=O)O)CC(O)C1O (centres unmarked) [3-Dihydrocaffeoylquinic acid]
Q: O=C(O)CNC(=O)c1ccc(O)cc1 [4′-Hydroxyhippuric acid]
Task item: Recorded Amount excreted in urine, 0- 3 h values differ for P and Q ; which one is higher? Please identify the chosen entry by its label.
Reply: Q
(Q: 1.3 µmol, P: 0.06 µmol)

###

assay: Urinary excretion of phenolic metabolites after intake of the GCPE nutraceutical; conditions: week 0, interval 3–6 h
REPORTED_METRIC: Amount excreted in urine, 3-6 h (µmol)

I: O=C(O)c1ccc(O)c(O)c1 [3,4-Dihydroxybenzoic acid]
II: COc1cc(/C=C/C(=O)O[C@@H]2C[C@@](O)(C(=O)O)C[C@@H](O)[C@@H]2O)ccc1O [3-Feruloylquinic acid]
Task item: Recorded Amount excreted in urine, 3-6 h values differ for I and II ; which one is higher? Please identify the chosen entry by its label.
Reply: II

###

experiment: Urinary excretion of phenolic metabolites after intake of the GCPE nutraceutical; conditions: week 8, interval 6–9 h
REPORTED_METRIC: Amount excreted in urine, 6-9 h (µmol)

Use the examples below as a reference point.
| COMPOUND | UNIT_LABEL | Amount excreted in urine, 6-9 h |
| --- | --- | --- |
| COc1cc(CCC(=O)O)ccc1O | µmol | 0.07 |
| COc1ccc(CCC(=O)O)cc1OS(=O)(=O)O [DHiFA-3′-sulfate] | µmol | 0.24 |

P: O=C(O)CCc1ccc(O)c(O)c1 [DHCA, 3-(3′,4′-Dihydroxyphenyl)propanoic acid]
Q: COc1cc(C=CC(=O)O)ccc1OC1OC(C(=O)O)C(O)C(O)C1O (stereo not shown) [FA-4′-glucuronide, 3′-Methoxycinnamic acid-4′-glucuronide]
Task item: // select label with min value of measured Amount excreted in urine, 6-9 h from [ P , Q ] Please identify the chosen entry by its label.
Reply: Q

###

assay: Urinary excretion of phenolic metabolites after intake of the GCPE nutraceutical; conditions: urine; week 8
REPORTED_METRIC: Urinary excretion (µmol/24 h)

| COMPOUND | Urinary excretion [µmol/24 h] |
| --- | --- |
| COc1cc(C=CC(=O)O)ccc1OS(=O)(=O)O [FA-4′-sulfate, 3′-Methoxycinnamic acid-4′-sulfate] | 33 |
| O=C(O)CCc1ccc(O)c(O)c1 [DHCA, 3-(3′,4′-Dihydroxyphenyl)propanoic acid] | 31 |
| COc1cc(CCC(=O)O)ccc1O[C@@H]1O[C@H](C(=O)O)[C@@H](O)[C@H](O)[C@H]1O [DHFA-4′-glucuronide] | 7 |
| O=C(O)c1ccc(O)cc1 [4-Hydroxybenzoic acid] | 1.01 |
| O=C(O)CCc1ccc(OS(=O)(=O)O)c(O)c1 [DHCA-4′-sulfate] | 10 |

P: O=C(CCc1ccc(O)c(O)c1)OC1CC(O)(C(=O)O)CC(O)C1O (stereo not shown) [3-Dihydrocaffeoylquinic acid]
Q: O=C(O)CCc1ccc(O)cc1 [DHCoA, 3-(4′-Hydroxyphenyl)propanoic acid]
Task item: Recorded Urinary excretion values differ for P and Q ; which one is higher? Please identify the chosen entry by its label.
Reply: Q
(Q: 6 µmol/24 h, P: 0.27 µmol/24 h)

Where do the numbers come from? From paper PMC9230201.
